Value source: PubChem BioAssay (NCI)

# Test system: MDA-MB-468 breast
# Protocol Text: NCI-60 one-dose screen, 48 h
# Measurement Setup: 10 µM unless noted
The panel holds about 83,000 compounds, 20% with a hit somewhere; the sample as a whole holds those more often. The source made the active and inactive calls. How the source made its calls: active means growth percent below 10; inactive means the rest.
Pick one: Y for active, N for inactive

The examples below pair each entry with its known result.
| Compound | Group |
| --- | --- |
| Clc1nc(-c2cccnc2)nc2sc3c(c12)CCCCCC3 | N |
| Cc1cc(Cl)c2c(Cl)ccc(Cl)c2n1 | N |
| C=C(C)[C@@H]1CC[C@]2(c3nnc(-c4ccncc4)o3)CC[C@]3(C)[C@H](CC[C@@H]4[C@@]5(C)CCC(=O)NC(C)(C)[C@@H]5CC[C@]43C)[C@@H]12 | N |
| COc1cc(NC(C)CN(CC(C)C)C(C)C)c2ncccc2c1 (stereo unspecified) | Y |
| COc1ccc(OC)c(Nc2nnc(-c3cc(OC)c(OC)c(OC)c3)o2)c1 | N |
| C1=CC(c2nn3c(-c4ccccc4)nnc3s2)=Cc2ccccc2O1 | N |
| CO[C@@]12C=C[C@@]34CCC(=O)N3c3ccccc3[C@@H](O1)C4C2 | N |
| Fc1cc(Nc2ccc3c(OCCCN4CCOCC4)cccc3n2)ccc1Cl | N |

[ask] State the result this test recorded for Cn1c2ccccc2c2c3c(c4c5ccccc5n(CCCCCC#N)c4c21)C(=O)N(O)C3=O .
[reply] Y

###

# Test system: MDA-MB-468 breast
# Protocol Text: NCI-60 one-dose screen, 48 h
# Measurement Setup: 10 µM unless noted
This is part of a sample that, as a whole, favours compounds with a hit. Of some 83,000 tested, about 20% had one in any assay. Activity calls are given as the source filed them. How the source made its calls: active means growth percent below 10; inactive means the rest.
Pick one: active, inactive

The examples below pair each entry with its known result.
| Molecule Smiles | Study Target | Group |
| --- | --- | --- |
| C=C(C)[C@@H]1CC[C@]2(C(=O)N3CCN(C)CC3)CC[C@]3(C)[C@H](CC[C@@H]4[C@@]5(C)CC[C@H](OC(=O)c6ccccc6C(=O)O)C(C)(C)[C@@H]5CC[C@]43C)[C@@H]12 | MDA-MB-468 breast | inactive |
| O=NN(CCCl)C(=O)Nc1ccc(NC(=O)N(CCCl)N=O)cc1 | MDA-MB-468 breast | inactive |
| O=C1C=Cc2ccccc2/C1=C/c1nc(-c2ccccc2)oc1O | MDA-MB-468 breast | inactive |
| C/C(=N\NC(=S)N1CCCC1)c1ccccn1 | MDA-MB-468 breast | active |

API: the following record is the query input.
[ask] State the result this test recorded for CC1(C)CC[C@]2(C(=O)O)CC[C@]3(C)[C@H](CC[C@@H]4[C@@]5(C)CCC(=O)C(C)(C)[C@@H]5CC[C@]43C)[C@H]2[C@H]1OC(=O)C(F)(F)F .
[reply] active

###

# System: MDA-MB-468 breast
# Protocol Text: NCI-60 one-dose screen, 48 h
# Measurement Setup: 10 µM unless noted
This is part of a sample that, as a whole, favours compounds with a hit. Of some 83,000 tested, about 20% had one in any assay. The source made the active and inactive calls. Rule for the calls: active = growth percent below 10; inactive = the rest.
Pick one: active, inactive

| Compound | Group |
| --- | --- |
| CC(=O)NC(O)C(Cl)Cl (stereo not given) | inactive |
| Cc1cc(C)n(C(=O)CSc2nc3sc4c(c3c(=O)n2-c2ccccc2)CCCCC4)n1 | inactive |
| CO[C@H]1C[C@@H]2CC[C@@H](C)[C@@](O)(O2)C(=O)C(=O)N2CCCC[C@H]2C(=O)O[C@H]([C@H](C)C[C@@H]2CC[C@@H](O)[C@H](OC)C2)CC(=O)[C@H](C)/C=C(\C)[C@@H](O)[C@@H](OC)C(=O)[C@H](C)C[C@H](C)\C=C/C=C/C=C/1C | active |
| CC(C)(C)c1ccc(-c2nnc(-c3nc4ccccc4nc3Cl)o2)cc1 | active |

[ask] State the result this test recorded for O=C(/C=C/CN1CCOCC1)Nc1cc2c(Nc3cccc(Cl)c3F)ncnc2cc1OCCOC(F)F .
[reply] active

[ask] Now the same for CC(C)OC(=O)N1CCOCC1
[reply] inactive

[ask] Now the same for Cc1ccc(S(N)(=O)=O)cc1Cl
[reply] inactive

[ask] Now the same for Cc1ccc(Nc2c(C(N)=O)cnc3ccc(S(=O)(=O)Nc4cc(C)on4)cc23)cc1
[reply] inactive

[ask] Now the same for COc1ccc2c(c1)c(CC(=O)[Se]CC(=O)O)c(C)n2C(=O)c1ccc(Cl)cc1
[reply] inactive

[ask] Now the same for Clc1ccc2[nH]cc(-c3cncn3CCc3ccccc3)c2c1
[reply] active

[ask] Now the same for CCOc1ccc(-c2cnnn2-c2nonc2-n2cccc2)cc1
[reply] inactive

[ask] Now the same for CCN(CC)c1ccc(CN(CC(=O)c2ccc(Cl)c(Cl)c2)Cc2ccccc2)cc1
[reply] inactive

[ask] Now the same for Cc1ccc(Nc2ccc(Nc3ccc(C)cc3)c3c2C(=O)c2cccc(O)c2C3=O)cc1
[reply] inactive

[ask] Now the same for CCCCCCCCC(=O)Nc1ccc(O)cc1
[reply] inactive

[ask] Now the same for CNCc1cccc2c1OCCOCCOCCN(CCN1CCOCC1)S(=O)(=O)c1ccc(cc1)-c1cnc(N)c(n1)C(=O)N2
[reply] inactive

[ask] Now the same for CCn1cc(C(=O)NN=C2CCCCCC2)c(=O)c2ccc(C)nc21
[reply] inactive

[ask] Now the same for Cc1cccnc1NC(=S)Nc1ncccc1C
[reply] inactive

[ask] Now the same for CN1CCN(c2ccc3c(C(N)=O)c(NC(=O)c4ccc(C(C)(C)C)cc4)sc3c2)CC1
[reply] inactive

[ask] Now the same for CCN1CCN(Cc2ccc(NC(=O)Nc3ccc(-n4ccc5c(NC(=O)c6ccccc6)nccc54)cc3)cc2C(F)(F)F)CC1
[reply] inactive
